// IC50 lookup, one value per entry
# TARGET OF ASSAY: recombinant RSV complex (Human respiratory syncytial virus A, UniProt P28887)
# Sequence (P28887 whole entry): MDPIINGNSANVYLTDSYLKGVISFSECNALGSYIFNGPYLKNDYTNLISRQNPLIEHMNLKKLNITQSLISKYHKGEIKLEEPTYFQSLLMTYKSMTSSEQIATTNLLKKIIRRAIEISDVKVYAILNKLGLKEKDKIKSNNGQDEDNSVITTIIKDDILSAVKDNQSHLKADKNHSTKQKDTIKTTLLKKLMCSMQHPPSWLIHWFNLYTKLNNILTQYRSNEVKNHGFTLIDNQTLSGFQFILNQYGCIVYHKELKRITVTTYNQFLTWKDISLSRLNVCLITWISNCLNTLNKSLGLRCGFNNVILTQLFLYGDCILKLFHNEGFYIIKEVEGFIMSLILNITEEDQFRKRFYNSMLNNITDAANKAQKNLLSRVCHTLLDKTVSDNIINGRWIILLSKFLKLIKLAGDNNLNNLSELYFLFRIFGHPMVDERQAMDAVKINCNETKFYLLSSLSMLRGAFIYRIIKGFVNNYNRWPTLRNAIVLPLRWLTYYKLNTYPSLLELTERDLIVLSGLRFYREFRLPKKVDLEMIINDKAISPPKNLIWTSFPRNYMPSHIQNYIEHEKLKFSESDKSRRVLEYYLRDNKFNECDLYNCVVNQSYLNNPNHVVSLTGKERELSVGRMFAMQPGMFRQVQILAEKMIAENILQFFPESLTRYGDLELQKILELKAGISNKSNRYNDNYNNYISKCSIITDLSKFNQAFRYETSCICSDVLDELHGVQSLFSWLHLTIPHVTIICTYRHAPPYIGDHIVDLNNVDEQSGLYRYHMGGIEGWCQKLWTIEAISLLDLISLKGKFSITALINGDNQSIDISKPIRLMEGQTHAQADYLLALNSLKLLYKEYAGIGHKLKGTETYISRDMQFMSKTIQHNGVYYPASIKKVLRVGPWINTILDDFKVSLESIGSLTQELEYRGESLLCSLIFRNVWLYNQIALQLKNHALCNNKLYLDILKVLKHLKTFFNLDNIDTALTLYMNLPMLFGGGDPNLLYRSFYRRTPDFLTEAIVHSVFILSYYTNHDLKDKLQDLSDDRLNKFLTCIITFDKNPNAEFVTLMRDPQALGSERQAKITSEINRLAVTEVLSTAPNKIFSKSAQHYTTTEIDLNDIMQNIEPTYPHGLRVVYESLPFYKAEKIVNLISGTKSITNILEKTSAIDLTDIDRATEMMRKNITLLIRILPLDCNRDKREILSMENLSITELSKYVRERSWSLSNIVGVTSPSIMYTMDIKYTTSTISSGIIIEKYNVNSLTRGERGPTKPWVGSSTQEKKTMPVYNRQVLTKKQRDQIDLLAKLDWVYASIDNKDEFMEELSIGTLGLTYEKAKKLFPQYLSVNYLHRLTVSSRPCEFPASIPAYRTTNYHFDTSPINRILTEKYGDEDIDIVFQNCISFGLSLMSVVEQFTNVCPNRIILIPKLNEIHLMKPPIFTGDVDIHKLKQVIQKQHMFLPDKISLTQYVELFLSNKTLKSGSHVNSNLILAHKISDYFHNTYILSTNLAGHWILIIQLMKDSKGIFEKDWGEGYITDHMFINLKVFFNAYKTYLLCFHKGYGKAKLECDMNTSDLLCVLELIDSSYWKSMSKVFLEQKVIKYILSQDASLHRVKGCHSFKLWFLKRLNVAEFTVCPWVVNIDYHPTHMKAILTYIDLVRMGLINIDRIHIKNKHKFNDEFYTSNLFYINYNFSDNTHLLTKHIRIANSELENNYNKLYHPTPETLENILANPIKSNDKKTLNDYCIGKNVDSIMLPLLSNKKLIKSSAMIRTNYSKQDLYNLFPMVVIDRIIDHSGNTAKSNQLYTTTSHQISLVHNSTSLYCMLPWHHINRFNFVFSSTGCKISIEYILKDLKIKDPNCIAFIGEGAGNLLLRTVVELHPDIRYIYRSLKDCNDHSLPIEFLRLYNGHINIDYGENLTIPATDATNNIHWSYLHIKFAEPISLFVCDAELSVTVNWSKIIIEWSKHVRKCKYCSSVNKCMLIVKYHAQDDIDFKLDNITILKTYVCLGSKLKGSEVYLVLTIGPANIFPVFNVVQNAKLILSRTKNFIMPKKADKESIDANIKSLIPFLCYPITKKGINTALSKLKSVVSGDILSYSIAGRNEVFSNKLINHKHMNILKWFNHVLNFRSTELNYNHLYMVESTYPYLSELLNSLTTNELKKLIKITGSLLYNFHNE
# Sequence (P03421 whole entry, further chain): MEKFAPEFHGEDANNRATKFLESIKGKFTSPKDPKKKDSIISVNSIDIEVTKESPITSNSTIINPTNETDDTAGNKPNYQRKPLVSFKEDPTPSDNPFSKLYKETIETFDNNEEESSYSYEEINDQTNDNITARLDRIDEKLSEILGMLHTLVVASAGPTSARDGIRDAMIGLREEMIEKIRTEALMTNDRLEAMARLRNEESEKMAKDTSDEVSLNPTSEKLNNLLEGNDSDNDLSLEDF
# PROTOCOL SUMMARY: RSV Polymerase Inhibition Assay
# Type: biochemical
ASSAY ENDPOINT: IC50

> print(dat)
                                    molecule       result
 1  COc1cc(C(=O)NCC(F)(c2ccc(OC)c(-c3ccc(F)c(Cl)c3)n2)C(F)(F)F)ccc1OC[C@@H](C)O (stereo partly drawn)    < 1000 nM
 2  COc1cc(C(=O)NCC(O)(c2cc(C3(O)CNC3)cc(-c3ccc(F)c(Cl)c3)n2)C(F)(F)F)ccc1OC1CC1 (stereo not drawn)    < 1000 nM
 3  CNC(C)(C)c1cc(-c2ccc(F)cc2)nc(C(O)(CNC(=O)c2ccc(OC3CC3)c(OC)c2)C(F)(F)F)c1 (stereo not drawn)    < 1000 nM
 4  COc1cc(C(=O)NCC(O)(c2cc(C3(C)CC(O)C3)cc(-c3ccc(F)c(Cl)c3)n2)C(F)(F)F)ccc1OC1CC1 (stereo not drawn)   < 10000 nM
 5  COc1cc(C(=O)NCC(O)c2cccc(-c3csc4c(F)cccc34)n2)ccc1OCCO (stereo not drawn)   < 10000 nM
 6  COc1cc(C(=O)NCC(O)(c2cc(C(C)(C)N)cc(-c3ccc(F)c(Cl)c3)n2)C(F)(F)F)cc2cccnc12 (stereo not drawn)    < 1000 nM
 7  COc1cc(C(=O)NCC(O)(c2cc(CNC(C)=O)cc(-c3ccc(F)cc3)n2)C(F)(F)F)ccc1OC1CC1 (stereo not drawn)    < 1000 nM
 8  COc1cc(C(=O)NCC(O)(c2ccc(OCCN(C)C)c(-c3ccc(F)cc3)n2)C(F)(F)F)ccc1OC1CC1 (stereo not drawn)   < 10000 nM
 9  COc1cc(C(=O)NCC(O)(CN2CCNCC2)c2ccc(OC)c(-c3ccc(F)c(Cl)c3)n2)ccc1OCCO (stereo not drawn)    < 1000 nM
10  COc1cc(C(=O)NCC(O)(c2cc(C(C)(C)N)cc(-c3ccc(F)c(Cl)c3)n2)C(F)(F)F)ccc1NC(C)=O (stereo not drawn)   < 10000 nM
11  COc1cc(C(=O)NCC(O)(c2cc(C(C)(C)N)cc(-c3ccc(F)cc3)n2)C2CC2)ccc1OCCO (stereo not drawn)    < 1000 nM
12  COc1cc(C(=O)NCC(O)(c2cc(C(C)(C)N)cc(-c3c[nH]c4c(F)cccc34)n2)C(F)(F)F)ccc1OC1CC1 (stereo not drawn)    < 1000 nM
13  COc1cc(C(=O)NCC(C)(O)c2ccc(OC)c(-c3ccc(F)c(Cl)c3)n2)ccc1OC1CC1 (stereo not drawn)    < 1000 nM
14  COc1cc(C(=O)NCC(O)(c2cc(C(C)(C)N)cc(-c3ccc(F)c(Cl)c3)n2)C(F)(F)F)ccc1O[C@@H]1CCNC1=O (stereo partly drawn)    < 1000 nM
15  COc1cc(C(=O)NCC(O)(c2cc(C(C)(C)N)cc(-c3ccc(F)c(Cl)c3)n2)C(F)(F)F)ccc1OC1CC1 (stereo not drawn) [Compound 314]    < 1000 nM
16  COc1cc(C(=O)NCC(O)(c2ccc(OC)c(-c3ccc(F)c(Cl)c3)n2)C(F)(F)F)ccc1OCc1ccn[nH]1 (stereo not drawn)    < 1000 nM
17  COc1cc(C(=O)NC[C@](O)(c2cc3c(c(-c4ccc(F)cc4)n2)OC[C@@]3(C)N)C(F)(F)F)ccc1OC[C@@H](C)O    < 1000 nM
18  CC(C)(N)c1cc(-c2ccc(F)c(Cl)c2)nc(C(O)(CNC(=O)c2cscn2)C(F)(F)F)c1 (stereo not drawn)   < 10000 nM
19  CCNC(C)(C)c1cc(-c2ccc(F)c(Cl)c2)nc(C(O)(CNC(=O)c2ccc(OC3CC3)c(OC)c2)C(F)(F)F)c1 (stereo not drawn)    < 1000 nM
20  COc1cc(C(=O)NCC(O)(CN2CCNC(=O)C2)c2ccc(OC)c(-c3ccc(F)c(Cl)c3)n2)ccc1OCCO (stereo not drawn)    < 1000 nM
21  CCC(O)(CNC(=O)c1ccc(OCCF)c(OC)c1)c1ccc(OC)c(-c2ccc(F)c(Cl)c2)n1 (racemic) [Compound 122]    < 1000 nM
22  COc1cc(C(=O)NCC(=O)c2cc3c(c(-c4ccc(F)c(Cl)c4)n2)OCC3)ccc1OCCF  < 100000 nM
23  CNC(C)(C)c1cc(-c2ccc(F)c(Cl)c2)nc(C(O)(CNC(=O)c2cc(OC)c3ncccc3c2)C(F)(F)F)c1 (stereo not drawn)    < 1000 nM
24  COc1cc(C(=O)NCC(O)(c2cc(C(C)(C)NC(C)=O)cc(-c3ccc(F)c(Cl)c3)n2)C(F)(F)F)ccc1OC1CC1 (stereo not drawn)    < 1000 nM
25  COc1cc(C(=O)NCC(O)(c2cc(C(C)(C)N)cc(-c3ccc(C#N)cc3)n2)C(F)(F)F)ccc1OCC(N)=O (stereo not drawn)    < 1000 nM
26  COc1cc(C(=O)NCC(O)(c2cc3c(c(-c4ccc(F)c(Cl)c4)n2)OCC3(C)NCCN)C(F)(F)F)ccc1OC1CC1 (stereo not drawn)    < 1000 nM
27  COc1cc(C(=O)NCC(O)(c2cc(C(C)(C)NC(C)=O)cc(-c3ccc(F)c(Cl)c3)n2)C(F)(F)F)ccc1OCC(N)=O (stereo not drawn)    < 1000 nM

###

# System: RSV replicon
# PROTOCOL SUMMARY: microbe, parasite or virus in culture
# Type: cell-based
# RUN CONDITIONS: human respiratory syncytial virus, read-out: EC50, the concentration of the drug required for reducing RSV replicon RNA by 50%
ASSAY ENDPOINT: EC50

> print(dat)
                                   compound  assay.endpoint     result
1  COc1cc(C(=O)NCC(O)(c2cc(C(C)(N)CO)cc(-c3ccc(F)c(Cl)c3)n2)C(F)(F)F)ccc1OC1CC1 (stereo not shown)            EC50  < 1000 nM
2  COc1cc(C(=O)NCC(O)(c2cc3c(c(-c4ccc(F)c(Cl)c4)n2)OCC=C3)C2CC2)ccc1OCCO (stereo not shown)            EC50  < 1000 nM
3  COc1cc(C(=O)NCC(O)(c2cc3c(c(-c4ccc(F)c(Cl)c4)n2)OCC3)C2CC2)ccc1OCCO (stereo not shown)            EC50  < 1000 nM
4  COc1cc(C(=O)NCC(O)(c2cc3c(c(-c4ccc(F)c(Cl)c4)n2)OCCC3(C)C)C(F)(F)F)ccc1OC[C@@H](C)O (stereo partly shown)            EC50  < 1000 nM

###

// pEC50 lookup, one value per entry
# Test system: RSV replicon
# PROTOCOL SUMMARY: microbe, parasite or virus in culture
# Type: cell-based
# RUN CONDITIONS: human respiratory syncytial virus, read-out: EC50, the concentration of the drug required for reducing RSV replicon RNA by 50%
pEC50: −log10 of the molar value.
ASSAY ENDPOINT: pEC50

> print(dat)
                                   compound  result
1  COc1cc(C(=O)NCC(O)(c2cc(C(C)(C)N)cc(-c3ccc(F)c(Br)c3)n2)C(F)(F)F)ccc1OC1CC1 (stereo not shown)  > 6.00
2  CNC(C)(C)c1cc(-c2ccc(F)c(Cl)c2)nc(C(O)(CNC(=O)c2cc(OC)c3ncccc3c2)C(F)(F)F)c1 (stereo not shown)  > 6.00
3  COc1cc(C(=O)NC[C@](O)(c2cc(C(C)(C)N)cc(-c3ccc(F)cc3)n2)C(F)(F)F)ccc1OCC(N)=O  > 6.00
4  COc1ccc(C(O)(CNC(=O)c2ccc(OCCO)c(Cl)c2)C2CC2)nc1-c1ccc(F)c(Cl)c1 (stereo not shown)  > 6.00

###

# TARGET OF ASSAY: recombinant RSV complex (Human respiratory syncytial virus A)
# PROTOCOL SUMMARY: RSV Polymerase Inhibition Assay
# Type: biochemical
// IC50 lookup, one value per entry
ASSAY ENDPOINT: IC50

> print(dat)
                                   compound       result
1  COc1cc(C(=O)NCC(O)(Cn2cncn2)c2ccc(OC)c(-c3ccc(F)c(Cl)c3)n2)ccc1OCCO (stereo not shown) [Compound 194]    < 1000 nM
2  COc1cc(C(=O)NCC(C)(C)c2ccc(OC)c(-c3ccc(F)c(Cl)c3)n2)ccc1OCCO [Compound 368]  < 100000 nM
3  COc1cc(C(=O)NCC(C)(F)c2ccc(OC)c(-c3ccc(F)c(Cl)c3)n2)ccc1OCCF (stereo not shown) [Compound 364]    < 1000 nM
4  COc1cc(C(=O)NCC(O)(c2cc(C(C)(N)CF)cc(-c3ccc(F)cc3)n2)C(F)(F)F)ccc1OCCO (single isomer, unassigned) [Compound 664]    < 1000 nM
5  COc1cc(C(=O)NCC(O)(c2cc(C(C)(C)N)cc(-c3ccc(F)cc3)n2)C(F)(F)F)ccc1OC1CC1 (stereo not shown) [Compound 318]    < 1000 nM
6  COc1cc(C(=O)NCC(=O)c2cc3c(c(-c4ccc(F)c(Cl)c4)n2)OCC=C3)ccc1OCCF [Compound 302]    < 1000 nM
7  CC(C)(N)c1cc(-c2ccc(F)cc2)nc(C(O)(CNC(=O)c2ccc(OC3CC3)c(CO)c2)C(F)(F)F)c1 (stereo not shown) [Compound 644]    < 1000 nM
